Recorded IC50 for the following compounds
Tested on: HCT-116 isogenic p53-knock-out subline
Assay Remarks: MTT assay, 96 h
Type: cell-based, human
Measurement Conditions: read-out: IC50 HCT-116p53ko, mean
Quick reminder: number only, in nM, skip the unit.

Compound | Reported
N.N.[Cl][Pt][Cl] [cisplatin, reference compound] | 1700

Then this compound:
The reported IC50 of the compound CC(=NNc1nc2ccccc2c2c1[nH]c1ccc(Br)cc12)c1ccc(CN2CCOCC2)cn1.[Cl][Cu][Cl] [compound 8, CuCl2(HL^8)·H2O] was 41

----------
Target Desc: PKA (Homo sapiens, UniProt P17612)
Outcome Measure: IC50 (µM)
Quick reminder: number only, in µM, skip the unit.

IC50 on PKA (Homo sapiens, UniProt P17612) for CC(=NNc1nc2ccccc2c2c1[nH]c1ccc(Br)cc12)c1ccc(CN2CCOCC2)cn1.[Cl][Cu][Cl] is 6.69

----------
Recorded IC50 for the following molecules
Test system: multidrug-resistant Colo320 human colon adenocarcinoma cells
Assay Remarks: MTT antiproliferative assay
Assay type: cell-based
Measurement Conditions: Homo sapiens, COLO 320; MTT, 72 h
Quick reminder: number only, in µM, skip the unit.

Molecule | Outcome Measure | Unit Text | Reported
C/C(=N\N=C1/NCc2ccccc2-c2c1[nH]c1ccc(Br)cc21)c1ccccn1 [HL^4nm] | IC50 | µM | 8.19

Then this molecule:
The reported IC50 of the molecule COc1cccc2c1C(=O)c1c(O)c3c(c(O)c1C2=O)C[C@@](O)(C(=O)CO)C[C@@H]3O[C@H]1C[C@H](N)[C@H](O)[C@H](C)O1 [doxorubicin, reference compound] was 5.43

----------
System: multidrug-resistant Colo320 human colon adenocarcinoma cells
Assay Remarks: MTT antiproliferative assay
Assay type: cell-based
Measurement Conditions: IC50 MRC-5/IC50 Colo320
Outcome Measure: selectivity factor (SF) Colo320
Answer field: number only, no words.

Before answering, review these 3 worked examples.
Compound String | Reported
CC(=NNc1nc2ccccc2c2c1[nH]c1ccccc12)c1ccc(CN2CCOCC2)cn1.[Cl][Cu][Cl] | 4.38
C/C(=N\N=C1/NCc2ccccc2-c2c1[nH]c1ccc(Br)cc21)c1ccccn1 | 0.01
CC(=NNC1=NCc2ccccc2-c2c1[nH]c1ccccc21)c1ccc(CN2CCOCC2)cn1.[Cl][Cu][Cl] | 1.23

Then this molecule:
selectivity factor (SF) Colo320 on multidrug-resistant Colo320 human colon adenocarcinoma cells for Brc1ccc2[nH]c3c(NN=Cc4ccc(CN5CCOCC5)cn4)nc4ccccc4c3c2c1.[Cl][Cu][Cl] is 0.26

----------
Tested on: multidrug-resistant Colo320 human colon adenocarcinoma cells
Assay Remarks: MTT antiproliferative assay
Assay type: cell-based
Measurement Conditions: IC50 MRC-5/IC50 Colo320
Recorded selectivity factor (SF) Colo320 for the following compounds
Answer field: number only, no words.

Before answering, review these 5 worked examples.
Compound | Outcome Measure | Reported
COc1cccc2c1C(=O)c1c(O)c3c(c(O)c1C2=O)C[C@@](O)(C(=O)CO)C[C@@H]3O[C@H]1C[C@H](N)[C@H](O)[C@H](C)O1 [doxorubicin, reference compound] | selectivity factor (SF) Colo320 | 2.03
CC(=NNC1=NCc2ccccc2-c2c1[nH]c1ccc(Br)cc21)c1ccc(CN2CCOCC2)cn1.[Cl][Cu][Cl] | selectivity factor (SF) Colo320 | 3.64
Brc1ccc2[nH]c3c(c2c1)-c1ccccc1CN=C3NN=Cc1ccc(CN2CCOCC2)cn1.[Cl][Cu][Cl] | selectivity factor (SF) Colo320 | 1.73
C(=NNC1=NCc2ccccc2-c2c1[nH]c1ccccc21)c1ccc(CN2CCOCC2)cn1.[Cl][Cu][Cl] | selectivity factor (SF) Colo320 | 0.83
CC(=NNC1=NCc2ccccc2-c2c1[nH]c1ccc(Br)cc21)c1ccccn1.[Cl][Cu][Cl] | selectivity factor (SF) Colo320 | 0.54

Then this compound:
The reported selectivity factor (SF) Colo320 of the compound CC(=NNc1nc2ccccc2c2c1[nH]c1ccc(Br)cc12)c1ccc(CN2CCOCC2)cn1.[Cl][Cu][Cl] was 0.30

----------
Target Desc: UniProtKB Q14012
Outcome Measure: IC50 (nM)
Quick reminder: number only, in nM, skip the unit.

IC50 on UniProtKB Q14012 for CC(=NNc1nc2ccccc2c2c1[nH]c1ccc(Br)cc12)c1ccc(CN2CCOCC2)cn1.[Cl][Cu][Cl] [compound 8, CuCl2(HL^8)·H2O] is 750

----------
Target Desc: SGK-1 (Homo sapiens, UniProt O00141)
Sequence (O00141 1-431): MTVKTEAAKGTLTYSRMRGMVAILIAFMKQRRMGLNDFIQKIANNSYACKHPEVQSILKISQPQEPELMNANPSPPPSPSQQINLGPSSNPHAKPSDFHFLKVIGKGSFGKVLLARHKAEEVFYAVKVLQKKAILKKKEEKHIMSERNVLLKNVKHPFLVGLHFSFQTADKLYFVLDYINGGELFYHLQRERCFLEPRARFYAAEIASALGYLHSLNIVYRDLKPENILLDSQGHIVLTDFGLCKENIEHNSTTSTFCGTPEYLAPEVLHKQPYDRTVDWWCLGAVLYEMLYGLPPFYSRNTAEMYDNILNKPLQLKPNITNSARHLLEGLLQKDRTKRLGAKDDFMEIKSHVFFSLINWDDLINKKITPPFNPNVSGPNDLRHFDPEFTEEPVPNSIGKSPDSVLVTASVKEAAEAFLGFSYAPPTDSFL
Outcome Measure: pIC50
In textbook form, pIC50 equals minus log to base ten of the concentration in mol/L.

The reported pIC50 of the compound CC(=NNc1nc2ccccc2c2c1[nH]c1ccc(Br)cc12)c1ccc(CN2CCOCC2)cn1.[Cl][Cu][Cl] was 5.07

----------
Recorded Thermodynamic solubility (S) for the following compounds
Assay Remarks: Thermodynamic solubility, UV–vis of saturated solutions
Measurement Conditions: pH 7.4, 20 mM HEPES, water, 298 K
Quick reminder: number only, in µM, skip the unit.

Compound String | Reported
C(=NN=c1[nH]c2ccccc2c2c1[nH]c1ccccc12)c1ccccn1 | 0.3
CC(=NNC1=NCc2ccccc2-c2c1[nH]c1ccccc21)c1ccc(CN2CCOCC2)cn1.[Cl][Cu][Cl] | 6.0
C(=NNc1nc2ccccc2c2c1[nH]c1ccccc12)c1ccccn1.[Cl][Cu][Cl] | 5.7

Then this compound:
The reported Thermodynamic solubility (S) of the compound Brc1ccc2[nH]c3c(NN=Cc4ccccn4)nc4ccccc4c3c2c1.[Cl][Cu][Cl] was 3.1

----------
Assay Remarks: Thermodynamic solubility, UV–vis of saturated solutions
Measurement Conditions: pH 5, 20 mM MES buffer, water, 298 K
Outcome Measure: Thermodynamic solubility (S) (µM)
Quick reminder: number only, in µM, skip the unit.

Compound String | Thermodynamic solubility (S) / µM
Brc1ccc2[nH]c3c(NN=Cc4ccccn4)nc4ccccc4c3c2c1.[Cl][Cu][Cl] | 8.9

The reported Thermodynamic solubility (S) of the compound C(=NN=c1[nH]c2ccccc2c2c1[nH]c1ccccc12)c1ccccn1 was 1.1

The reported Thermodynamic solubility (S) of the compound C(=NNc1nc2ccccc2c2c1[nH]c1ccccc12)c1ccccn1.[Cl][Cu][Cl] was 134

The reported Thermodynamic solubility (S) of the compound CC(=NNC1=NCc2ccccc2-c2c1[nH]c1ccccc21)c1ccc(CN2CCOCC2)cn1.[Cl][Cu][Cl] was 63.4

----------
Target Desc: GSK3β (Homo sapiens)
Sequence (P49841 whole entry): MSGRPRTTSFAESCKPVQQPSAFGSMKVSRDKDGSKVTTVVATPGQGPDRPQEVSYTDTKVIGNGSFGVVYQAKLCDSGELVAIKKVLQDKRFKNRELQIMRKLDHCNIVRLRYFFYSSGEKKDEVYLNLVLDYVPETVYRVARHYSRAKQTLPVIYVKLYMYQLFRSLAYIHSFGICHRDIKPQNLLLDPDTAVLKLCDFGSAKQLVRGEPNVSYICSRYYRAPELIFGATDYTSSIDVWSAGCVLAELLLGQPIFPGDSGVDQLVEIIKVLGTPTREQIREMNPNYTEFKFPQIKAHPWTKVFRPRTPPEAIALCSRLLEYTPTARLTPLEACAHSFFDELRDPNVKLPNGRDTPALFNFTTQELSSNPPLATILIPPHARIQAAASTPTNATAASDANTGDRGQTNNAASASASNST
Assay Remarks: Kinase panel screen and IC50
Type: biochemical
Measurement Conditions: read-out: IC50 against GSK3β
Outcome Measure: pIC50
In textbook form, pIC50 equals minus log to base ten of the concentration in mol/L.

The reported pIC50 of the compound CC(=NNc1nc2ccccc2c2c1[nH]c1ccc(Br)cc12)c1ccc(CN2CCOCC2)cn1.[Cl][Cu][Cl] was 5.79

----------
Assay Remarks: Proton dissociation constants by UV–vis titration
Format: physicochemical
Measurement Conditions: DMSO:water 30:70 (w/w) solvent mixture, 30–70% (w/w) DMSO–water, 298 K, I = 0.10 M (KCl); read-out: pKa2
Recorded pKa for the following compounds
Answer field: number only, no words.

Compound String | pKa
C(=N\N=C1/NCc2ccccc2-c2c1[nH]c1ccccc21)/c1ccccn1 | 4.75

Then this compound:
The reported pKa of the compound C(=N\N=C1/NCc2ccccc2-c2c1[nH]c1ccccc21)/c1ccc(CN2CCOCC2)cn1 was 4.53
